Biological target: T1, recombinant human RON SEMA and PSI domains (human, UniProt Q04912 25-571)
T1 construct: domain: SEMA+PSI; Commercial protein (R&D Systems); also called rhRON SEMA+PSI; hRON SEMA+PSI
Test: SPR, purified Ab captured on anti-human IgG Fc, 37 C
METRIC: pKd
Scale: negative log10 of molar concentration, which is what pKd denotes.

BINDER	pKd
Sh29B06-78 (antibody, human IgG1, kappa, V domains shown, Humanized, human IgG1/kappa: Hu29B06 Hv4-59 D27G T30S M48I I67V Y78F IgG1 + Sh29B06 Kv2-28 Kappa) VH: QVQLQESGPGLVKPSETLSLTCTVSGGSISSGYWNWIRKPPGKKLEYIGYISYSGKTYYNPSLKSRVTISRDTSKNQFSLKLSSVTAADTAVYYCARSKYDYAMDYWGQGTLVTVSS VL: DIVMTQSPLSLPVTPGEPASISCRASEIVDNFGISFMNWYLQKPGQSPQLLIYAASNQGSGVPDRFSGSGSGTDFTLKISRVEAEDVGVYYCQQSKEVPPTFGGGTKVEIKR	9.96
Sh07F01-62 (antibody, human IgG1, kappa, V domains shown, Humanized, human IgG1/kappa: Sh07F01 Hv3-48 D28T T60A L63V E65G IgG1 + HE L 07F01 Kv1-9 Kappa) VH: EVQLVESGGGLVQPGGSLRLSCAASGFTFSRHWMSWVRQAPGKGLEWVSEINPDSRTINYAPSVKGRFTISRDNAKNSLYLQMNSLRAEDTAVYYCARRVRIHYYGAMDSWGQGTTVTVSS VL: DIQLTQSQSFVSTSVGDRVTVTCRASQNVGSSLVWYQQKPGKSPKTLIYSASFLYSGVPSRFSGSGSGTEFTLTISSVQPEDFADYFCQQYNNYPLTFGGGTKVEIKR	9.60
Sh29B06-23 (antibody, human IgG1, kappa, V domains shown, Humanized, human IgG1/kappa: Hu29B06 Hv4-59 IgG1 (CDR graft with back mutations) + Sh29B06 Kv2-28 Kappa) VH: QVQLQESGPGLVKPSETLSLTCTVSGDSITSGYWNWIRKPPGKKLEYMGYISYSGKTYYNPSLKSRITISRDTSKNQYSLKLSSVTAADTAVYYCARSKYDYAMDYWGQGTLVTVSS VL: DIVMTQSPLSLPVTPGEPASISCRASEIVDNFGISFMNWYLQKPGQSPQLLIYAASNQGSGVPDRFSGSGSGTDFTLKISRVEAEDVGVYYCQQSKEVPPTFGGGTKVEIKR	9.34
Sh07F01-83 (antibody, human IgG1, kappa, V domains shown, Humanized, human IgG1/kappa: Sh07F01 Hv3-48 D28T T60A L63V E65G IgG1 + Sh07F01 Kv1-9 F1 Kappa) VH: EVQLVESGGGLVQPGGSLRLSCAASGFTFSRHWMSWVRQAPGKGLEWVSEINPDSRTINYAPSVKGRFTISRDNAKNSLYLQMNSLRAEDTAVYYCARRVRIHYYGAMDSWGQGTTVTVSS VL: DIQLTQSPSFLSASVGDRVTITCRASQNVGSSLVWYQQKPGKAPKTLIYSASFLYSGVPSRFSGSGSGTEFTLTISSLQPEDFATYYCQQYNNYPLTFGGGTKVEIKR	9.62
Sh07F01-43 (antibody, human IgG1, kappa, V domains shown, Humanized, human IgG1/kappa: Sh07F01 Hv3-48 IgG1 + HE L 07F01 Kv1-9 Kappa) VH: EVQLVESGGGLVQPGGSLRLSCAASGFDFSRHWMSWVRQAPGKGLEWVSEINPDSRTINYTPSLKERFTISRDNAKNSLYLQMNSLRAEDTAVYYCARRVRIHYYGAMDSWGQGTTVTVSS VL: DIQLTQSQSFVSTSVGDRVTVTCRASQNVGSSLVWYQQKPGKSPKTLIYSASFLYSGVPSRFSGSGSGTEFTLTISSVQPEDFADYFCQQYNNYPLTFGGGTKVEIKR	9.52
Sh07F01-69 (antibody, human IgG1, kappa, V domains shown, Humanized, human IgG1/kappa: Sh07F01 Hv3-48 IgG1 + Sh07F01 Kv1-9 F1 Kappa) VH: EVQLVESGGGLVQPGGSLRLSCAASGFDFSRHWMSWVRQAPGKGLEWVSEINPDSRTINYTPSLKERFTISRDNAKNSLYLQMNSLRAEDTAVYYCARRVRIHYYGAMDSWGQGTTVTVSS VL: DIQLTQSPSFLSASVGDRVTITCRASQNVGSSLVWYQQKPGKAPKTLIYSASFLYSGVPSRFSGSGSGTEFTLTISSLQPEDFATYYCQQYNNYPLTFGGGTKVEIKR	9.52

Let's switch to this binder now.
Look up and report measured pKd for this entry: Sh07F01-2 (antibody, human IgG1, kappa, V domains shown, also called Chimeric 07F01 C102S) VH: EVKLLESGGGLVQPGGSLKLSCAASGFDFSRHWMSWVRLAPGKGLEWIAEINPDSRTINYTPSLKEKFIISRDNAKNSLFLQMNRVRSEDTALYYCARRVRIHYYGAMDSWGQGTSVTVSS VL: DIVLTQSQKIVSTSVGARVSVTCKASQNVGSSLVWYQQKPGQSPKTLIYSASFRYSGVPDRFTGSGSGTDFTLTISNVQSEDLADYFCQQYNNYPLTFGAGTKLELKR
9.51
